B1: Lysine-specific demethylase 2B, residues 656 to 722; numbered along this chain, Q8NHM5 (parent)
chain: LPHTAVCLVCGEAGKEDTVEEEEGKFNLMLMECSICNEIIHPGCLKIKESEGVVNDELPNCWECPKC

- Variants of: B1
- test method notes: abundance fitness (aPCA) (normalised: wild type 0, dead -1); higher = more abundant; growth selection in yeast, the domain comes from the species named
- measurement parameters: Homo sapiens
The threshold is inclusive: abundance fitness of exactly -0.3 counts as Satisfied; values below receive Not satisfied.

>>> assigned_class("LPHTAVCLVCGEAGKEDTVEEEEGKFNLMLMECSICNEIIHPYCLKIKESEGVVNDELPNCWECPKC [G43Y]")
"Satisfied"
>>> assigned_class("LPHTAVCLVCGEAGKEDTIEEEEGKFNLMLMECSICNEIIHPGCLKIKESEGVVNDELPNCWECPKC [V19I]")
"Satisfied"
>>> assigned_class("LPHTAVCLVCGEAGKEDTVEEEEGKFNLMLMECSICNEIIHPGCLKIKESRGVVNDELPNCWECPKC [E51R]")
"Satisfied"
>>> assigned_class("LPHTAVCLVCGEAGKEDTVEEEEGKFNLMLMECGICNEIIHPGCLKIKESEGVVNDELPNCWECPKC [S34G]")
"Satisfied"
>>> assigned_class("LPHTAVCLVCGEIGKEDTVEEEEGKFNLMLMECSICNEIIHPGCLKIKESEGVVNDELPNCWECPKC [A13I]")
"Satisfied"
>>> assigned_class("LPHTAVCLVCGEAGKEDTVEEEEGKFNLMLMECSICNEIIHPGCLSIKESEGVVNDELPNCWECPKC [K46S]")
"Satisfied"
>>> assigned_class("LPHTAVCLVCGEAGKEDTVEEEEGKFNLMLMECSICNEIIHPGCLKIKESYGVVNDELPNCWECPKC [E51Y]")
"Satisfied"
>>> assigned_class("LPHTAVCLVCGEAGKEDTVEEEEGKFNLMLMECSICVEIIHPGCLKIKESEGVVNDELPNCWECPKC [N37V]")
"Not satisfied"
>>> assigned_class("LPHTAVCLVCGEAGKEDTVEEEEGKFNLMLMECSICNEWIHPGCLKIKESEGVVNDELPNCWECPKC [I39W]")
"Satisfied"
>>> assigned_class("LPHTAVCLVCGEAGKEDTVEEEEGKSNLMLMECSICNEIIHPGCLKIKESEGVVNDELPNCWECPKC [F26S]")
"Not satisfied"
>>> assigned_class("LPHTAVCLVCGEAGKEDTVEAEEGKFNLMLMECSICNEIIHPGCLKIKESEGVVNDELPNCWECPKC [E21A]")
"Satisfied"
>>> assigned_class("LPHTAVCLVCGEAGKEDTVEEEEGKFNLMWMECSICNEIIHPGCLKIKESEGVVNDELPNCWECPKC [L30W]")
"Not satisfied"
>>> assigned_class("LPHTAVCLVCGEAGKETTVEEEEGKFNLMLMECSICNEIIHPGCLKIKESEGVVNDELPNCWECPKC [D17T]")
"Satisfied"
>>> assigned_class("LPHTAVCLVCGEAGKEDTAEEEEGKFNLMLMECSICNEIIHPGCLKIKESEGVVNDELPNCWECPKC [V19A]")
"Satisfied"
>>> assigned_class("LPHTAVCLVCGEAGKEDTVEEEEGKFNLMLMECSICNEIIHPNCLKIKESEGVVNDELPNCWECPKC [G43N]")
"Satisfied"
>>> assigned_class("LPHTAVCLVCGEAGKWDTVEEEEGKFNLMLMECSICNEIIHPGCLKIKESEGVVNDELPNCWECPKC [E16W]")
"Not satisfied"
>>> assigned_class("LPHTAVCLVCGEAGKEDTVEEEEGKFNLMLMECSICNEIIHPGCLKIKESEGVVNDELPNCWEIPKC [C64I]")
"Not satisfied"
>>> assigned_class("LPHTAVCLVCGEMGKEDTVEEEEGKFNLMLMECSICNEIIHPGCLKIKESEGVVNDELPNCWECPKC [A13M]")
"Satisfied"
>>> assigned_class("LPHTAVCLVCGEAGKEDTVEEEEGKFNLMLMECSICNEIIHPGCLKIKESEGVVNCELPNCWECPKC [D56C]")
"Satisfied"
>>> assigned_class("LPHTAVCLVCGEAGKEDTVEEEEGKFNLMLMECSICNEIIHPGCLKIKESEGVVKDELPNCWECPKC [N55K]")
"Not satisfied"
>>> assigned_class("LPHTAVCLVCGEAGKEDTVEEEEGKFNLMLMECSICNEIIHPGCLKIKESPGVVNDELPNCWECPKC [E51P]")
"Not satisfied"
>>> assigned_class("LPHTAVCLVCGEAGKEDTVEEEEGKFNLMLMECSICNEIIHPGCLKIKESEGVVNDELPNCWEEPKC [C64E]")
"Not satisfied"
>>> assigned_class("LPHTAVCLVCGEAGKEDTVEEEEGKFNLMLMECSICNQIIHPGCLKIKESEGVVNDELPNCWECPKC [E38Q]")
"Satisfied"
>>> assigned_class("LPHTGVCLVCGEAGKEDTVEEEEGKFNLMLMECSICNEIIHPGCLKIKESEGVVNDELPNCWECPKC [A5G]")
"Not satisfied"
>>> assigned_class("LPHTAVCLVCGEAGKEDTVEEEEGKFNLMLMECSICNEIIHPGCLKIKESEGVVNWELPNCWECPKC [D56W]")
"Not satisfied"
>>> assigned_class("LPHTAVCLVCGEAGKEDTVEEEEGKFNLMLMECSICNEIIHPGCLKIKESEGVVNDELPNCWWCPKC [E63W]")
"Not satisfied"
>>> assigned_class("LPHTAVCLVCGEAGKEDTVEEEEGKFNLMLMECSICNEIGHPGCLKIKESEGVVNDELPNCWECPKC [I40G]")
"Satisfied"
>>> assigned_class("LPHTAVCLVCGEAGKEDTVEEEEGKFNLMLMECSICNEIIHPGCLKIKESEGVVNDELPNCWECPMC [K66M]")
"Not satisfied"
>>> assigned_class("LPHTAVCLVCGEAGKEDTVEEEEGKFNLMLMECSICNERIHPGCLKIKESEGVVNDELPNCWECPKC [I39R]")
"Satisfied"
>>> assigned_class("LPHTAVCLVCGEAGKEDTVEEEEGKFNLMLMECSICNEIIHPGCLKIKESEGVVWDELPNCWECPKC [N55W]")
"Not satisfied"
>>> assigned_class("LPHTAVCLVCGEAGKEDTVEEENGKFNLMLMECSICNEIIHPGCLKIKESEGVVNDELPNCWECPKC [E23N]")
"Satisfied"
>>> assigned_class("LPHTAVCLVCGEAGKEDTVEEEEGKFNLMLMECHICNEIIHPGCLKIKESEGVVNDELPNCWECPKC [S34H]")
"Satisfied"
>>> assigned_class("LPHTAVCLVCGEAGKEDTVEEEEGKFNLMLMECSICNEIIHPGCLKIKESEGVVNDELPNCWMCPKC [E63M]")
"Satisfied"
>>> assigned_class("LPHTAICLVCGEAGKEDTVEEEEGKFNLMLMECSICNEIIHPGCLKIKESEGVVNDELPNCWECPKC [V6I]")
"Satisfied"
>>> assigned_class("LPHTAVCLVCGEAGKEDTVEEEEGKHNLMLMECSICNEIIHPGCLKIKESEGVVNDELPNCWECPKC [F26H]")
"Not satisfied"
>>> assigned_class("LPHTAVCLVCGEAGKEDTVEEEEGKFNLMLMECSICNEIYHPGCLKIKESEGVVNDELPNCWECPKC [I40Y]")
"Satisfied"
>>> assigned_class("LPHTAVCLVCGEAGKEDTVEEEEGKFNLMLMEASICNEIIHPGCLKIKESEGVVNDELPNCWECPKC [C33A]")
"Not satisfied"
>>> assigned_class("LPHTAVCLVCGEAGKEDTVEEEEGKFNLMLMECSICNEILHPGCLKIKESEGVVNDELPNCWECPKC [I40L]")
"Satisfied"
>>> assigned_class("LPHTANCLVCGEAGKEDTVEEEEGKFNLMLMECSICNEIIHPGCLKIKESEGVVNDELPNCWECPKC [V6N]")
"Satisfied"
>>> assigned_class("LPHTAVCLVCGEGGKEDTVEEEEGKFNLMLMECSICNEIIHPGCLKIKESEGVVNDELPNCWECPKC [A13G]")
"Satisfied"
>>> assigned_class("LPHTAVCLVCGEAGKEPTVEEEEGKFNLMLMECSICNEIIHPGCLKIKESEGVVNDELPNCWECPKC [D17P]")
"Satisfied"
>>> assigned_class("LPHTAVCLVCGEATKEDTVEEEEGKFNLMLMECSICNEIIHPGCLKIKESEGVVNDELPNCWECPKC [G14T]")
"Satisfied"
>>> assigned_class("LPHTAVCLVCGEAGKEDTVEEEEGKFNLMLMECSICNEIIHPGCWKIKESEGVVNDELPNCWECPKC [L45W]")
"Not satisfied"
>>> assigned_class("LPHTAVCLVCGEAGKEDTVEEEEGKFNLMLMECSICNEIIHPGCLKIKESEGVVNDQLPNCWECPKC [E57Q]")
"Satisfied"
>>> assigned_class("LPHTAVCLVCGEAGKEDTVREEEGKFNLMLMECSICNEIIHPGCLKIKESEGVVNDELPNCWECPKC [E20R]")
"Satisfied"
>>> assigned_class("LPHTAVCLVCGEAGKEDTVEEEYGKFNLMLMECSICNEIIHPGCLKIKESEGVVNDELPNCWECPKC [E23Y]")
"Not satisfied"
